- targetOrSystem: Peroxisome proliferator-activated receptor gamma (Homo sapiens)
- assayName: Agonist activity at human PPARgamma by Gal4 transactivation assay
- Type: functional
measurementLabel: EC50 (µM)

Recorded EC50, per entry:
{"columns": ["compound", "EC50 [µM]"],
 "data": [
  ["CCCCCCCCOC(=O)C1C(c2ccccc2)C(C(=O)O)C1c1ccccc1 (configuration not stated)", 9.3],
  ["CCCCCCOC(=O)C1C(c2ccccc2)C(C(=O)O)C1c1ccccc1 (configuration not stated)", 3.6],
  ["Cc1ccccc1OC(=O)C1C(c2ccccc2)C(C(=O)O)C1c1ccccc1 (configuration not stated)", 10]
]}

a = CCCCCCCOC(=O)C1C(c2ccccc2)C(C(=O)O)C1c1ccccc1 (configuration not stated)
b = Cc1cccc(OC(=O)C2C(c3ccccc3)C(C(=O)O)C2c2ccccc2)c1 (configuration not stated)
c = CC(C)CCOC(=O)C1C(c2ccccc2)C(C(=O)O)C1c1ccccc1 (configuration not stated)
Rank order required: EC50, descending. Output spec: labels arranged per the requested ranking.
a, c, b
(a: 8.6 µM, c: 4.8 µM, b: 3.3 µM)

###

- targetOrSystem: Peroxisome proliferator-activated receptor gamma (Homo sapiens) (UniProt P37231)
- Sequence (whole entry): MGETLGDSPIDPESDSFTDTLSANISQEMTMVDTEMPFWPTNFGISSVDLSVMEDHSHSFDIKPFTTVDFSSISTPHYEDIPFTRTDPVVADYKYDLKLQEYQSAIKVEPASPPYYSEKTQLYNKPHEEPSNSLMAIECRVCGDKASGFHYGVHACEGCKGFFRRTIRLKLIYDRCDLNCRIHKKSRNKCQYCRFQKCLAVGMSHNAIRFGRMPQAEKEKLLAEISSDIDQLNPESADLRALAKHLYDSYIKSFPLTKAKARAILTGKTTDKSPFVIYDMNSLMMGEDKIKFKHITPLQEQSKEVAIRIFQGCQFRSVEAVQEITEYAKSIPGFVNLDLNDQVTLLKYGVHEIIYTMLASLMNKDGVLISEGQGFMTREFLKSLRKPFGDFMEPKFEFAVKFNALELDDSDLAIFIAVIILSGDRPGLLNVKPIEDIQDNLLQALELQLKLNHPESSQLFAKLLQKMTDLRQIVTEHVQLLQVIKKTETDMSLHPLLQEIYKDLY
- assayName: Agonist activity at human PPARgamma at 10 uM by Gal4 transactivation assay relative to pioglitazone
- Format: functional
measurementLabel: Activity (%)

{"columns": ["compound", "targetOrSystem", "Activity / %"],
 "data": [
  ["Cc1ccccc1OC(=O)C1C(c2ccccc2)C(C(=O)O)C1c1ccccc1 (configuration not stated)", "Peroxisome proliferator-activated receptor gamma (Homo sapiens) (UniProt P37231)", 138],
  ["CCCCCCCCOC(=O)C1C(c2ccccc2)C(C(=O)O)C1c1ccccc1 (configuration not stated)", "Peroxisome proliferator-activated receptor gamma (Homo sapiens) (UniProt P37231)", 100],
  ["CCCCCCCOC(=O)C1C(c2ccccc2)C(C(=O)O)C1c1ccccc1 (configuration not stated)", "Peroxisome proliferator-activated receptor gamma (Homo sapiens) (UniProt P37231)", 153],
  ["CC(C)CCOC(=O)C1C(c2ccccc2)C(C(=O)O)C1c1ccccc1 (configuration not stated)", "Peroxisome proliferator-activated receptor gamma (Homo sapiens) (UniProt P37231)", 71]
]}

1 = CCCCCCOC(=O)C1C(c2ccccc2)C(C(=O)O)C1c1ccccc1 (configuration not stated)
2 = Cc1cccc(OC(=O)C2C(c3ccccc3)C(C(=O)O)C2c2ccccc2)c1 (configuration not stated)
3 = CCC(C)OC(=O)C1C(c2ccccc2)C(C(=O)O)C1c1ccccc1 (configuration not stated)
Rank order required: Activity, descending. Output spec: labels arranged per the requested ranking.
2, 1, 3
(2: 123%, 1: 66%, 3: 23%)
